target: Gal(b1-4)GlcNAc(b1-3)Gal(b1-4)GlcNAc(b1-3)Gal(b1-4)GlcNAc(b1-2)Man(a1-3)[Gal(b1-4)GlcNAc(b1-3)Gal(b1-4)GlcNAc(b1-3)Gal(b1-4)GlcNAc(b1-2)Man(a1-6)]Man(b1-4)GlcNAc(b1-4)GlcNAc; test: glycan array binding signal (z-score within array); higher = stronger binding; conditions: glycan notation: IUPAC condensed, linker removed
This is one part of a sample in which the strongest signals are shown more often than they occur.
Entries and their measured glycan array binding signal (z-score) follow.
REPORTED_PROPERTY: glycan array binding signal (z-score)

>>> reported_measurement("LTL (Lotus tetragonolobus), P19664 (protein) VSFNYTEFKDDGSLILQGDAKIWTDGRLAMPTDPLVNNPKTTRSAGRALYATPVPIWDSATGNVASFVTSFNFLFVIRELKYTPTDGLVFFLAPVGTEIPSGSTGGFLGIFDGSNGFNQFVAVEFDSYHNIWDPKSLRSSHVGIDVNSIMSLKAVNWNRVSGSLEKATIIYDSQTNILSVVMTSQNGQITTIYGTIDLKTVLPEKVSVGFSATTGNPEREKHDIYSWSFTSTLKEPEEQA")
3.1
>>> reported_measurement("TIM1 (protein) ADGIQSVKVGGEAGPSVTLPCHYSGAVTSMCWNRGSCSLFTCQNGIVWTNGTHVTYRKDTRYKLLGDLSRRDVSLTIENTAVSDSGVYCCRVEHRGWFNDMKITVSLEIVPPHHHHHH")
3.39
>>> reported_measurement("rCnSL-proA (Clitocybe nebularis) (protein) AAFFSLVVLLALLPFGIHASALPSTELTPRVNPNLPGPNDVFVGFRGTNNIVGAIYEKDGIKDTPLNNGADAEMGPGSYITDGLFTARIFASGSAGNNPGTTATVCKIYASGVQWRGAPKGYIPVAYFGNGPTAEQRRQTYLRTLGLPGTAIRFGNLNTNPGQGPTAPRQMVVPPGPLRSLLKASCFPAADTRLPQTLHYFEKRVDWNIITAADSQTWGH")
4.45
